Reported values of selectivity ratio rat liver/ T. gondii liver for individual entries
- TARGET ENTITY: Toxoplasma gondii dihydrofolate reductase (Toxoplasma gondii)
- Sequence (Q07422 whole entry): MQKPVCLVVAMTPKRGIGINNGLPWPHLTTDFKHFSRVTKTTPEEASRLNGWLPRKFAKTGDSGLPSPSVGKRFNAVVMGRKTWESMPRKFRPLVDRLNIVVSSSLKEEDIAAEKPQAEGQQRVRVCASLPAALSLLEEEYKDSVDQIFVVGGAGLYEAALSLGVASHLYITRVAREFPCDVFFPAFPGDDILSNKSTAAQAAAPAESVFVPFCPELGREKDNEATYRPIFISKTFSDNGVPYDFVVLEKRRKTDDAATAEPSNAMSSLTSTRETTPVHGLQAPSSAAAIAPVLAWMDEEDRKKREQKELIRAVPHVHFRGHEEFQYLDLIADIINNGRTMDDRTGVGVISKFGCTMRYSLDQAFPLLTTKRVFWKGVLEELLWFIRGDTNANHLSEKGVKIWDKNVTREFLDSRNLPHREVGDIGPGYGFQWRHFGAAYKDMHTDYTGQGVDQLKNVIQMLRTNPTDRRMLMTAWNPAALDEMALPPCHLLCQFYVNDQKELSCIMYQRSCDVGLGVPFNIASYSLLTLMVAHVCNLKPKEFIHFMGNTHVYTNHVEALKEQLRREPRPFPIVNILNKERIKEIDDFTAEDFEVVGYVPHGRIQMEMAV
- EXPERIMENTAL PROTOCOL: biochemical
- CONDITION SET: ratio of IC50 values; cmpds 6 and 7 from mean values
PROPERTY NAME: selectivity ratio rat liver/ T. gondii liver

>  <SAMPLE SMILES>
Nc1nc(N)c2nc(Cc3cccc4[nH]c5ccccc5c34)cnc2n1

>  <TEST VALUE>
0.022

$$$$
>  <SAMPLE SMILES>
Nc1nc(N)c2nc(CN3c4ccccc4C=Cc4ccccc43)cnc2n1

>  <TEST VALUE>
118

$$$$
>  <SAMPLE SMILES>
Nc1nc(N)c2nc(CN3c4ccccc4Sc4ccccc43)cnc2n1

>  <TEST VALUE>
1.8

$$$$
>  <SAMPLE SMILES>
Nc1nc(N)c2nc(CN3c4ccccc4CCc4ccccc43)cnc2n1

>  <TEST VALUE>
5.6

$$$$
>  <SAMPLE SMILES>
Nc1nc(N)c2nc(CN(c3ccccc3)c3ccccc3)cnc2n1

>  <TEST VALUE>
2.2

$$$$
